Attribution: the array DNA melting data of Ke et al. (doi:10.1101/2024.01.08.574731)

# method: melting temperature; fluorescence melt of hairpins on a sequencing array, two-state fit, raised by 9.35 °C to match UV melts
# cond: sodium 0.088 M
Kindly return True if reported Tm is no lower than 50 °C; return False if it is lower.

1. CGCACCGGAAACGGCGCG (((.(((....))).)))    True
2. GGTTCTCCGAAAGGAACC (((..(((....))))))    False
3. GATCTAGAGCTAGATC ((((((....))))))    False
4. GATCCTGCTCAGGATC ((((((....))))))    True
5. GCTTACGAAAGTAGTAGC ((((((....)))..)))    False
6. GCGCCGCGAAAGCACCGC (((..((....))..)))    False
7. GATCTGACGCAGATC ((((((...))))))    False
8. GTTGGTGGAAACATCAGC (.((.((....)).)).)    False
9. GATCATCGGATGATC ((((((...))))))    False
10. GTTCTAGAAATAGAAC ((((((....))))))    False
11. GATCGTATGGACGATC ((((((....))))))    True
12. GCAGAGCGAAAGCGGTGC (((..((....))..)))    True
13. GGTTGTCGAAAGACACC (((.(((....))))))    True
14. CGGGACGGAAACGTACCG (((.(((....))).)))    True
15. GTTGGCGGAAACGTCAAC ((((.((....)).))))    True
16. GTCGAGGAAACTCGAC ((((((....))))))    True
17. GTCCCCGGAAACGGGAAC ((.((((....)))).))    False
18. GTTCCTCGAAAGAGTAAC (((.(((....))).)))    False
19. GAAGCCGAAAGGCGGTTC ((((((....)))..)))    False
20. GCCCCCGAAAGGGTAGGC ((((((....)))..)))    True
21. GCCAAAGGAAACCTTGGC (((((.(....).)))))    False

###

# method: folding enthalpy; higher = less favourable; fluorescence melt of hairpins on a sequencing array, two-state fit
# cond: sodium 0.088 M
Measured folding enthalpy by item
measured property: folding enthalpy

1. GCGATTGTTCGC ((((....))))    -24.5 kcal/mol
2. GATCATTAGATGATC ((((((...))))))    -29.2 kcal/mol
3. GATTGCCGAAAGGCATC (((.(((....))))))    -10.3 kcal/mol
4. GGTGGAGAAATCCACC ((((((....))))))    -33.1 kcal/mol
5. GCAAAACCGAAAGGTTGC (((..(((....))))))    -17.7 kcal/mol
6. GTCCCCGAAAGGGGGGAC ((((((....)))..)))    -11.7 kcal/mol
7. GGGAACCCGAAAGGGCCC (((..(((....))))))    -15.4 kcal/mol
8. GACCACGAAAGTGCTGTC ((((((....)))..)))    -17.2 kcal/mol

###

# method: melting temperature; fluorescence melt of hairpins on a sequencing array, two-state fit, raised by 9.35 °C to match UV melts
# cond: sodium 0.088 M
measured property: Tm (°C)

1. CGTGCGGAAACGCTCACG ((((((....)))..)))    39.9
2. GATCCTGCAAGGATC ((((((...))))))    68.5
3. GACAGACCGAAAGGTGTC (((..(((....))))))    44.3
4. GGAGGGTCGAAAGACTCC (((..(((....))))))    39.5
5. GCCAGGCGAAAGCGTAGC ((.(.((....)).).))    38.9
6. GCCGATGCGAAAGCAGGC (((..(((....))))))    58.5
7. GTTGGGCGAAAGCCGAAC (((.(((....))).)))    53.2
8. CGATACGGAAACGTTCG (((.(((....))))))    42.3
9. GATCCTAACAAGGATC ((((((....))))))    51.5
10. GTCGTCGCGAAAGCGGAC (((..(((....))))))    46.5
11. GTTGTGCCGAAAGGCAAC (((..(((....))))))    53
12. GCGGACGGAAACGCCCGC ((((.((....)).))))    67.8

###

# method: melting temperature; fluorescence melt of hairpins on a sequencing array, two-state fit, raised by 9.35 °C to match UV melts
# cond: sodium 0.088 M
Measured Tm by item
measured property: Tm (°C)

1. GCGCGAGGAAACTCGCAC (.(((((....))))).)    49.4
2. GATCGCGAAAGCGTCATC ((((((....)))..)))    33.8
3. GATCGCCCATGCGATC ((((((....))))))    67.6
4. GGCCCCGAAAGGGGTGCC ((((((....)))..)))    59.1
5. GCTTGGCGAAAGCCAGC (((.(((....))))))    59
6. GCACTGCGAAAGCATTGC (((.(((....))).)))    52.5
7. GCACGGCGAAAGCTCTGC (((..((....))..)))    37.4
8. GGACGCGAAAGCGATTCC ((((((....)))..)))    36.5
9. GGACAAGGAAACCTGTCC (((((.(....).)))))    47.2
10. GGAGCAGGAAACCACTCC ((((..(....)..))))    27.1
11. GACGCCGAAAGGCGTGTC ((((((....)))..)))    66.9
12. GATCGACTAGTCGATC ((((((....))))))    63.7
13. GAACCTGGAAACAGGTCC (.(((((....))))).)    40.9
14. GGGAGAGGAAACCCTCCC (((((.(....).)))))    47.6
15. GGTACAGGAAACTGTACC (((((((....)))))))    59.3
16. GGTGTGGGAAACCATGCC ((..(((....)))..))    45.5

###

# method: folding enthalpy; higher = less favourable; fluorescence melt of hairpins on a sequencing array, two-state fit
# cond: sodium 0.088 M
Kindly return Fulfilled if reported folding enthalpy is no lower than -20 kcal/mol; return Not fulfilled if it is lower.

1) GAAGGCACGAAAGTGTTC (((..(((....))))))    Fulfilled
2) GCTCCAGGAAACTAGAGC ((((.((....)).))))    Not fulfilled
3) GCCCCGCGAAAGCTGCGC ((.(.((....)).).))    Fulfilled
4) GCGTGATGACGC ((((....))))    Not fulfilled
5) GTAAACGGAAACGTTCAC ((.((((....)))).))    Not fulfilled

###

Measured folding enthalpy by item
# method: folding enthalpy; higher = less favourable; fluorescence melt of hairpins on a sequencing array, two-state fit
# cond: sodium 0.088 M
measured property: folding enthalpy (kcal/mol)

1. GCAACCGGAAACGGTCGC ((.((((....)))).))    -29.8
2. GTGCACGGAAACGTGTAC ((.((((....)))).))    -41.8
3. CGCCCGGAAACGGGAGCG ((((((....)))..)))    -15.3
4. CGCAGTCGGAAACGAGCG (((..(((....))))))    -10.9
5. GATCAGGAGCCTGATC ((((((....))))))    -31.6
6. GTCCGGCGAAAGCCAGAC (((.(((....))).)))    -27.5
7. GGCCAACGAAAGTTAGCC (((.(((....))).)))    -29.1
8. GCGCCCGGAAACGGACGC (((.(((....))).)))    -47
9. GATATCACGAAAGTGATC (((..(((....))))))    -9.68
10. GCGACGGCTCGC ((((....))))    -13.3
11. GATCTGACCCAGATC ((((((...))))))    -37.4
12. GGGATACGAAAGTAGCCC (((.(((....))).)))    -43.9
13. GACGGAGGAAACCCCGTC (((((.(....).)))))    -37.5
14. GCGGCCACCGC ((((...))))    -19.6
15. GCAATAGGAAACCATTGC (((((.(....).)))))    -28
16. GATCGATTGCTCGATC ((((((....))))))    -31.9
17. GTAACCGAAAGGTAATAC ((((((....)))..)))    -11.9
